Molecular target: rat TIMP-1 (rat, UniProt P30120 24-217)
Sequence (P30120 24-217 limits assumed): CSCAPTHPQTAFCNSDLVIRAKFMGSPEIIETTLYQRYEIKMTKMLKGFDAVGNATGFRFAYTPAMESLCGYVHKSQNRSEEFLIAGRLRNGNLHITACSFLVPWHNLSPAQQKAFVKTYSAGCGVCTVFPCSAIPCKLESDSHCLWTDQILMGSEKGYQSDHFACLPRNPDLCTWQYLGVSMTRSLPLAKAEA
Experiment: cell-based or functional assay
Documented IC50 in rat protease assay across a set of binders
test_readout: IC50 in rat protease assay (nM)

[
  {
    "binder": "MS-BW-60 (Fab, V domains shown, Fab, FLAG + Strep-tag II; not tied by name) VH: QVQLVQSGAEVKKPGESLKISCKGSGYSFTSYWIGWVRQMPGKGLEWMGIIYPGDSDTRYSPSFQGQVTISADKSISTAYLQWSSLKASDTAMYYCARFVSYNGSVPYFDYWGQGTLVTVSS VL: DIALTQPASVSGSPGQSITISCTGTSSDVGGYNYVSWYQQHPGKAPKLMIYDVSNRPSGVSNRFSGSKSGNTASLTISGLQAEDEADYYCQSMDFRLMHVFGGGTKLTVLG",
    "test_readout": "IC50 in rat protease assay",
    "qualifier_operator": ">",
    "value_observed": 100
  },
  {
    "binder": "MS-BW-17 (Fab, V domains shown, Fab, FLAG + Strep-tag II; not tied by name) VH: QVQLVQSGAEVKKPGESLKISCKGSGYSFTSYWIGWVRQMPGKGLEWMGIIYPGDSDTRYSPSFQGQVTISADKSISTAYLQWSSLKASDTAMYYCARLTNYFDSIYYDHWGQGTLVTVSS VL: DIALTQPASVSGSPGQSITISCTGTSSDVGGYNYVSWYQQHPGKAPKLMIYDVSNRPSGVSNRFSGSKSGNTASLTISGLQAEDEADYYCQSYDPSHPSKVFGGGTKLTVLG",
    "test_readout": "IC50 in rat protease assay",
    "qualifier_operator": "=",
    "value_observed": 11
  },
  {
    "binder": "MS-BW-62 (Fab, V domains shown, Fab, FLAG + Strep-tag II; not tied by name) VH: QVQLVQSGAEVKKPGESLKISCKGSGYSFTSYWIGWVRQMPGKGLEWMGIIYPGDSDTRYSPSFQGQVTISADKSISTAYLQWSSLKASDTAMYYCARLFTYPFLYFDVWGQGTLVTVSS VL: DIALTQPASVSGSPGQSITISCTGTSSDVGGYNYVSWYQQHPGKAPKLMIYDVSNRPSGVSNRFSGSKSGNTASLTISGLQAEDEADYYCQSDFPVMVFGGGTKLTVLG",
    "test_readout": "IC50 in rat protease assay",
    "qualifier_operator": "=",
    "value_observed": 19
  },
  {
    "binder": "MS-BW-20 (Fab, V domains shown, Fab, FLAG + Strep-tag II; not tied by name) VH: QVQLVQSGAEVKKPGSSVKVSCKASGGTFSSYAISWVRQAPGQGLEWMGGIIPIFGTANYAQKFQGRVTITADESTSTAYMELSSLRSEDTAVYYCARSGYLDYWGQGTLVTVSS VL: DIALTQPASVSGSPGQSITISCTGTSSDVGGYNYVSWYQQHPGKAPKLMIYDVSNRPSGVSNRFSGSKSGNTASLTISGLQAEDEADYYCQSYDYYDYGVFGGGTKLTVLG",
    "test_readout": "IC50 in rat protease assay",
    "qualifier_operator": ">",
    "value_observed": 300
  },
  {
    "binder": "MS-BW-63 (Fab, V domains shown, Fab, FLAG + Strep-tag II; not tied by name) VH: QVQLVQSGAEVKKPGESLKISCKGSGYSFTSYWIGWVRQMPGKGLEWMGIIYPGDSDTRYSPSFQGQVTISADKSISTAYLQWSSLKASDTAMYYCARILTGHVLLFDYWGQGTLVTVSS VL: DIALTQPASVSGSPGQSITISCTGTSSDVGGYNYVSWYQQHPGKAPKLMIYDVSNRPSGVSNRFSGSKSGNTASLTISGLQAEDEADYYCQSDNPYLVFGGGTKLTVLG",
    "test_readout": "IC50 in rat protease assay",
    "qualifier_operator": "=",
    "value_observed": 20
  },
  {
    "binder": "MS-BW-54 (Fab, V domains shown, Fab, FLAG + Strep-tag II; not tied by name) VH: QVQLVQSGAEVKKPGESLKISCKGSGYSFTSYWIGWVRQMPGKGLEWMGIIYPGDSDTRYSPSFQGQVTISADKSISTAYLQWSSLKASDTAMYYCARYYGFEYDLLFDNWGQGTLVTVSS VL: DIALTQPASVSGSPGQSITISCTGTSSDVGGYNYVSWYQQHPGKAPKLMIYDVSNRPSGVSNRFSGSKSGNTASLTISGLQAEDEADYYCQSYDISGYPVFGGGTKLTVLG",
    "test_readout": "IC50 in rat protease assay",
    "qualifier_operator": "=",
    "value_observed": 7
  },
  {
    "binder": "MS-BW-18 (Fab, V domains shown, Fab, FLAG + Strep-tag II; not tied by name) VH: QVQLVQSGAEVKKPGESLKISCKGSGYSFTSYWIGWVRQMPGKGLEWMGIIYPGDSDTRYSPSFQGQVTISADKSISTAYLQWSSLKASDTAMYYCARLVGGGYDLMFDSWGQGTLVTVSS VL: DIALTQPASVSGSPGQSITISCTGTSSDVGGYNYVSWYQQHPGKAPKLMIYDVSNRPSGVSNRFSGSKSGNTASLTISGLQAEDEADYYCQSYDDMQFVFGGGTKLTVLG",
    "test_readout": "IC50 in rat protease assay",
    "qualifier_operator": ">",
    "value_observed": 300
  },
  {
    "binder": "MS-BW-24 (Fab, V domains shown, Fab, FLAG + Strep-tag II; not tied by name) VH: QVQLVQSGAEVKKPGESLKISCKGSGYSFTSYWIGWVRQMPGKGLEWMGIIYPGDSDTRYSPSFQGQVTISADKSISTAYLQWSSLKASDTAMYYCARYYVTDTAYFDYWGQGTLVTVSS VL: DIALTQPASVSGSPGQSITISCTGTSSDVGGYNYVSWYQQHPGKAPKLMIYDVSNRPSGVSNRFSGSKSGNTASLTISGLQAEDEADYYCQSDLYFPVFGGGTKLTVLG",
    "test_readout": "IC50 in rat protease assay",
    "qualifier_operator": "=",
    "value_observed": 20
  },
  {
    "binder": "MS-BW-23 (Fab, V domains shown, Fab, FLAG + Strep-tag II; not tied by name) VH: QVQLVQSGAEVKKPGASVKVSCKASGYTFTSYYMHWVRQAPGQGLEWMGWINPNSGGTNYAQKFQGRVTMTRDTSISTAYMELSSLRSEDTAVYYCARIMWSDYGQLVKGGDIWGQGTLVTVSS VL: DIALTQPASVSGSPGQSITISCTGTSSDVGGYNYVSWYQQHPGKAPKLMIYDVSNRPSGVSNRFSGSKSGNTASLTISGLQAEDEADYYCQSYDVFPINRVFGGGTKLTVLG",
    "test_readout": "IC50 in rat protease assay",
    "qualifier_operator": ">",
    "value_observed": 300
  },
  {
    "binder": "MS-BW-30 (Fab, V domains shown, Fab, FLAG + Strep-tag II; not tied by name) VH: QVQLVQSGAEVKKPGESLKISCKGSGYSFTSYWIGWVRQMPGKGLEWMGIIYPGDSDTRYSPSFQGQVTISADKSISTAYLQWSSLKASDTAMYYCARYAGHQYEFFFDFWGQGTLVTVSS VL: DIELTQPPSVSVAPGQTARISCSGDALGDKYASWYQQKPGQAPVLVIYDDSDRPSGIPERFSGSNSGNTATLTISGTQAEDEADYYCQSRDPVGFPVFGGGTKLTVLG",
    "test_readout": "IC50 in rat protease assay",
    "qualifier_operator": ">",
    "value_observed": 100
  }
]
